Origin of measurements: patent US8420675B2

# target_desc: human CRTH2 (Homo sapiens)
# Sequence (Q9Y5Y4 whole entry): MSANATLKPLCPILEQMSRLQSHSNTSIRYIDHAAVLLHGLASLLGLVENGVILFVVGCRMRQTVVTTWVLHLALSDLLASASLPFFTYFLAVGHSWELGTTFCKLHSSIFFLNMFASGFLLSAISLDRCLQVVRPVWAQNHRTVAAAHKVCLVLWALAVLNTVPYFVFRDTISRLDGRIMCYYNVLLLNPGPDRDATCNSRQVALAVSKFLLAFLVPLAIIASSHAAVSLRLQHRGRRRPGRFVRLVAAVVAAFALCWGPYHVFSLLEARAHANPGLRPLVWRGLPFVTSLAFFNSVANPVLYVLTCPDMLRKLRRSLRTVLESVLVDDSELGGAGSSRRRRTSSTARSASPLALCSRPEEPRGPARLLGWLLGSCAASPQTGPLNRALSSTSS
# test_description: Human CRTH2 Receptor Binding Assay (whole cell, [3H]ramatroban competition)
# measurement_conditions: CHO-K1 cells expressing human CRTH2 and G-alpha16; 20 nM [3H]ramatroban; 1 hour, room temperature
Assign labels as follows, please: met for IC50 below 0.03 µM; not met for IC50 equal to or exceeding 0.03 µM.

Solved entries (count: 4):
compound: CN([C@@H]1CCCc2c1cnn2CC(=O)O)S(=O)(=O)c1ccc(Oc2ccccc2Cl)cc1Cl [Example 9-10a]
label_class: not met
--
compound: CN([C@@H]1CCCc2c1cnn2CC(=O)O)S(=O)(=O)c1cc(Oc2ccc(F)cc2)cc(C(F)(F)F)c1 [Example 9-42a]
label_class: met
--
compound: Cc1nnc(-c2cccc(S(=O)(=O)NC3CCCc4c3cnn4CC(=O)O)c2)o1 (stereo not drawn)
label_class: not met
--
compound: CN([C@@H]1CCCc2c1cnn2CC(=O)O)S(=O)(=O)c1ccc(Oc2ccc(F)c(Cl)c2)c(Cl)c1 [Example 9-24a]
label_class: met

As a next step, examine the compound that follows.
QUERY: Hello, is IC50 of the following compound strictly smaller than 0.03 µM? CN([C@@H]1CCCc2c1cnn2CC(=O)O)S(=O)(=O)c1ccc(Oc2ccc(F)cc2Cl)cc1Cl
RESULT: not met
